biological target: Melanocortin receptor 3 (Homo sapiens, UniProt P41968); experiment: Effective concentration against human melanocortin receptor-3 expressed in 293 HEK cells
Sequence (P41968 whole entry): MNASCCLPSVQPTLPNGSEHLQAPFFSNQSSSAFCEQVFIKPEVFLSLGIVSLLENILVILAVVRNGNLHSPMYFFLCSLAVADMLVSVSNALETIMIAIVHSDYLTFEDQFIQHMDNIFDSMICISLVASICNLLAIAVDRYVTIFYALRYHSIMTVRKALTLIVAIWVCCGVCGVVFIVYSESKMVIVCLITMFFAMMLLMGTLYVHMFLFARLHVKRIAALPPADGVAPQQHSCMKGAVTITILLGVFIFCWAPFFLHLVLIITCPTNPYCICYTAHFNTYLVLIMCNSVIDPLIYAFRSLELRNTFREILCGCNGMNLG
PROPERTY: EC50

Q. Name the recorded EC50 of the item CCCCN(CC(=O)NCC(=O)N[C@@H](CCCCN)C(=O)N[C@H](Cc1ccccc1)C(=O)N(CCCN=C(N)N)CC(=O)N(CCc1c[nH]c2ccccc12)CC(=O)NCC(N)=O)C(C)=O in your answer.
A. 158 nM

Q. Name the recorded EC50 of the item CCCC[C@H](NC(C)=O)C(=O)NCC(=O)N[C@@H](CCCCN)C(=O)N[C@H](Cc1ccccc1)C(=O)N[C@@H](CCCNC(=N)N)C(=O)N[C@@H](Cc1c[nH]c2ccccc12)C(=O)NCC(N)=O in your answer.
A. 7.94 nM

Q. Name the recorded EC50 of the item CCCCN(CC(=O)NCC(=O)N[C@@H](CCCCN)C(=O)N[C@H](Cc1ccccc1)C(=O)N[C@@H](CCCN=C(N)N)C(=O)N[C@@H](Cc1c[nH]c2ccccc12)C(=O)NCC(N)=O)C(C)=O in your answer.
A. 25.1 nM
